system: CAL120; assay: area over the GR curve, 72 h; higher = more effect;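 further: Dye Drop or Deep Dye Drop imaging of viable cells in 384-well plates (Hoechst nuclei, LIVE/DEAD dye), nine half-log doses, GR normalized to DMSO controls and time-zero plates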
Dear colleague, classification is by area over the GR curve, with ranges listed here: class A = under 0.2 GR, class B = from 0.2 GR up to 0.3 GR, class C = 0.3 GR and over

q: Field: class (area over the GR curve) — entry: CO[C@@H](C)Cn1c(=O)n(C)c2cnc3ccc(-c4cncc(C(C)(C)O)c4)cc3c21 (max 10 µM)
a: class C

q: Entry to check: NC(=O)Nc1cc(-c2cccc(F)c2)sc1C(=O)N[C@H]1CCCNC1 [AZD7762] (max 10 µM)
a: class C

q: Request: COc1cc([C@@H]2c3cc4c(cc3[C@@H](O[C@@H]3O[C@@H]5CO[C@@H](C)O[C@H]5[C@H](O)[C@H]3O)[C@H]3COC(=O)[C@H]23)OCO4)cc(OC)c1O [Etoposide] (max 10 µM)
a: class C

q: Could you do the same for CC(=O)c1c(C)c2cnc(Nc3ccc(N4CCNCC4)cn3)nc2n(C2CCCC2)c1=O (max 3.162 µM) , please?
a: class A

q: Param item: O=C1NC(=NCc2cccs2)SC1=Cc1ccc2ncccc2c1 [R0-3306] (max 10 µM)
a: class A

q: Also check CCC(=O)Nc1ccc(C(=O)Nc2ccc(Nc3ncc4c(n3)N(C)c3ccc(C)cc3C(=O)N4C)cc2)cc1
a: class C

q: Same thing, different compound: Cc1nc(NC(=O)N2CCC[C@H]2C(N)=O)sc1-c1ccnc(C(C)(C)C(F)(F)F)c1 [Alpelisib/BYL719] (max 10 µM)
a: class A

q: Another compound to look at: COc1cccc2c1C(=O)c1c(O)c3c(c(O)c1C2=O)C[C@@](O)(C(=O)CO)C[C@@H]3O[C@H]1C[C@H](N)[C@H](O)[C@H](C)O1 [Doxorubicin] (max 3.162 µM)
a: class C

q: How about CS(=O)(=O)N1CCN(Cc2cc3nc(-c4cccc5[nH]ncc45)nc(N4CCOCC4)c3s2)CC1 [Pictilisib/GDC0941] (max 10 µM) ?
a: class B

q: Quick one: CN(C)C(=O)c1cc2cnc(Nc3ccc(N4CCNCC4)cn3)nc2n1C1CCCC1 [LEE011/Ribociclib] (max 10 µM)
a: class B

q: For CN(C)C/C=C/C(=O)Nc1ccc(C(=O)N2CCC[C@@H](Nc3ncc(Cl)c(-c4c[nH]c5ccccc45)n3)C2)cc1 [THZ531] (max 1 µM) then?
a: class B

q: Another compound to look at: NC1(C(=O)N[C@@H](CCO)c2ccc(Cl)cc2)CCN(c2nc[nH]c3nccc2-3)CC1 [AZD5363] (max 10 µM)
a: class A

q: Entry to check: CCOc1cc2ncc(C#N)c(Nc3ccc(OCc4ccccn4)c(Cl)c3)c2cc1NC(=O)/C=C/CN(C)C [Neratinib/HKI272] (max 3.162 µM)
a: class B

Origin of measurements: the supplement of paper PMC9663587
